- Tested on: human non-small cell lung cancer A549 cells
- assayDetails: MTT cytotoxicity assay, A549 cells
- Assay type: cell-based
- conditionNotes: human, 48 h
Peptide text beside a SMILES is read from it.
observationType: IC50 (µM)
Hi! Could you send only the number? It should be in µM, unit omitted.

Item under review: CC[C@H](C)[C@@H]1NC(=O)[C@@H]2CCCN2C(=O)[C@@H]2CCCN2C(=O)[C@H](CC(C)C)NC(=O)[C@H](Cc2ccccc2)NC(=O)CNC(=O)[C@H](CC(N)=O)NC1=O [dianthiamide A] (cyclo(GFLPPIN)) . Reported IC50? 47.9
